experiment: Human HepG2 cell viability assay in 384 well format; type: toxicity, cell-based; design: dose 125 nL, time 70.5 hour; concentration not given beside the values; settings: HepG2 cells, read-out: Inhibition
measured quantity: cytotoxicity at 70.5 h (%)
I only need the number, in %, no unit after it.

CCn1cnnc1CCNC(=O)C1COc2ccc(OC)cc2C1 (configuration not stated)
-11.5
CNc1nc(C)c(-c2nc(-c3c(C)ncc4c3CCNC4)no2)s1
-16.8
CCCNC(=O)c1cnc(N(C)C)nc1COC
-5.33
Cc1cc(C2CCCN2C(=O)c2ccc(OCC(N)=O)cc2)no1 (configuration not stated)
-11.5
CCOCC(O)CN1CCN(C(=O)C2CCC2)CC1 (configuration not stated)
-3.91
CC(C)[C@H]1CN(C(=O)CO)C[C@@H]1N(C)C
-13.8
CCC(=O)N1CCC(c2nc(N3CCCCC3)ncc2S(C)(=O)=O)CC1
-2.83
COCCN(Cc1ccoc1)C(=O)c1ccccn1
-3.55
CC(C)CN1C(=O)CO[C@@H]2CN(C(=O)CC(F)(F)F)C[C@H]21
-1.53
O=C1CSC(C(F)(F)F)c2c(O)nn(C3CCCC3)c2N1 (configuration not stated)
-22.6

Record request: cytotoxicity at 70.5 h value, item O=C(NCCNc1ncccn1)N1CCCC1 -0.644

Please do the same for COc1ccc(OCCCNC(=O)NCc2csc(C)n2)cc1 as well. -7.03

====

Reported cytotoxicity at 70.5 h values follow for various compounds
test: Human HepG2 cell viability assay in 384 well format; format: toxicity, cell-based; set-up: dose 125 nL, time 70.5 hour; concentration not given beside the values; conditions: HepG2 cells, read-out: Inhibition
I only need the number, in %, no unit after it.

CN1CCN(CC(NCc2ccc(F)c(F)c2)c2ccccc2)CC1 (configuration not stated)
5.13

Record request: cytotoxicity at 70.5 h value, item CC(Cn1cccn1)NC(=O)N1CCC(NS(C)(=O)=O)CC1 (configuration not stated) -17.2

Please do the same for Cc1ccn(-c2ccccc2NCc2scnc2C)n1 as well. -1.69

Please do the same for NC(=O)COc1cccc(C(=O)Nc2cnc3n2CCCC3)c1 as well. -5.66

Please do the same for CC(C)Nc1ncnc2c1CCN(Cc1nccn1C)CC2 as well. 8.85

Please do the same for Cc1ccc(CNC(=O)Nc2nccs2)cn1 as well. -4.14

Please do the same for Cn1cccc1C(=O)N1CC[C@@]2(O)CCN(S(C)(=O)=O)C[C@H]2C1 as well. -6.36

====

Reported cytotoxicity at 70.5 h values follow for various molecules
test: Human HepG2 cell viability assay in 384 well format; type: toxicity, cell-based; parameters: dose 125 nL, time 70.5 hour; concentration not given beside the values; settings: HepG2 cells, read-out: Inhibition
I only need the number, in %, no unit after it.

Look over these answered cases.
CC1=C[C@@H](CC#N)[C@H](C(C)C)C[C@H]1CC(=O)N1CCN(CCO)CC1
-8.18
CC(C)c1cc(-c2cnn(C)c2C2CC2)c(C#N)c(N)n1
-0.849
COc1ccc(OC)c(C(C(=O)O)N2CCSCC2)c1 (stereo unspecified)
-4.28
CCOC(=O)[C@H]1[C@@H](O)C(=O)N(C)C12CCN(C(=O)CC1CCCC1)CC2
-3.01
COCc1noc(-c2ccc(N(C)Cc3ncccc3C)nc2)n1
73.3

Record request: cytotoxicity at 70.5 h value, item CCOCCOC(C)C(=O)NCc1ccc(N2CCCCC2)cc1 (stereo unspecified) 0.804

Please do the same for Cc1ccc(CN2CCOC3(COCCN(Cc4ccncc4)C3)C2)o1 (stereo unspecified) as well. -13.7

Please do the same for COc1ccc(-c2nc(CCNCc3ccncc3)co2)cc1 as well. 1.89

Please do the same for CCn1nc(C)c(CCn2ccnc2-c2cc3n(n2)CCCNC3)c1C as well. -3.85

Please do the same for CCCN(Cc1cccnc1)C(=O)C1CCS(=O)(=O)CC1 as well. 6.55

Please do the same for CC(C)CC(NCc1cccs1)c1ccccn1 (stereo unspecified) as well. -13.2

====

experiment: Human HepG2 cell viability assay in 384 well format; type: toxicity, cell-based; design: dose 125 nL, time 70.5 hour; concentration not given beside the values; conditions: HepG2 cells, read-out: Inhibition
Reported cytotoxicity at 70.5 h values follow for various compounds
I only need the number, in %, no unit after it.

Look over these answered cases.
O=C1CC[C@H]2[C@H](CCN2c2ccccn2)N1CC1CCOCC1
-9.84
CN(C)C(=O)COC[C@]12COC[C@H]1CN(Cc1ccoc1)C2
-6.16
Cc1ccc2nc(C(=O)N(C)[C@@H]3CC[C@@H](N4CCCC4)[C@@H]3O)cn2c1
-3.38
CCc1nc(CNCC2CCCN2c2cccnn2)cs1 (centres undefined)
-6.05
O=C(CN1CCc2cncnc2C1)NC1CCCCNC1=O (centres undefined)
0.54
CC(C)c1nn(C)c(N(C)C)c1CNC1CCN(CC2CC2)CC1
0.338
CCc1cc(N2CCN(c3ccc(Cl)cn3)CC2)n2nccc2n1
-1.55
N#Cc1cccc(OCCN2CCC(C(=O)N3CCOCC3)CC2)c1
-11.2
CS(=O)(=O)NCCNC(=O)c1ccc(OCc2ccccc2)nc1
-9.1
CCOc1ccc(S(=O)(=O)N(C)Cc2cnn(CC)c2)cc1
-2.15

Record request: cytotoxicity at 70.5 h value, item CN1CCCCC12CCN(c1nncs1)CC2 1.8

Please do the same for COc1ccc(C2(NC(=O)CCn3cncn3)CCCCC2)cc1 as well. -6.29

Please do the same for CN(C)C(=O)N1CC2(CCOCC2)c2cc(NS(=O)(=O)C3CC3)ccc21 as well. 11.5

Please do the same for Cc1ccc(F)cc1C(=O)NCc1ccc(C(=O)O)o1 as well. 7.02

Please do the same for COc1ccccc1OCC(=O)Nc1ncccc1C as well. -3.19

Please do the same for Cc1nc(CN2CCC(CNC(=O)NCCC3CCC3)CC2)oc1C as well. 0.076

Please do the same for O=C(O)[C@H]1C[C@H](C(=O)NC2CC2)CN(Cc2ccc(-c3cc[nH]n3)s2)C1 as well. 11.9

Please do the same for CCCS(=O)(=O)N1CCC(Oc2ccc(C#N)cc2)CC1 as well. 4.2

====

test: Human HepG2 cell viability assay in 384 well format; format: toxicity, cell-based; parameters: dose 125 nL, time 70.5 hour; concentration not given beside the values; details: HepG2 cells, read-out: Inhibition
measured quantity: cytotoxicity at 70.5 h (%)
I only need the number, in %, no unit after it.

Record request: cytotoxicity at 70.5 h value, item O=C(NCc1c(F)cccc1Cl)c1cc(CN2CCCC(O)C2)on1 (stereo not drawn) -13.8

Please do the same for CN(CC(=O)N1CCCN(Cc2cscn2)CC1)c1cnccn1 as well. -5.45

Please do the same for O=C(NCc1nn(-c2ccccc2)c2c1CCC2)NC1CCOCC1 as well. -0.276

Please do the same for CC1(C)CC(N(Cc2ccncc2)Cc2cccnc2)CC(C)(C)N1 as well. 27.1

Please do the same for Cc1cccc(N2CCN(C(=O)CNCCn3cccn3)CC2)c1 as well. 9.75

Please do the same for CN(C)C1Cc2ccccc2N(S(=O)(=O)c2cccc(C#N)c2)C1 (stereo not drawn) as well. -4.2

Please do the same for O=C(NC[C@H]1OC[C@@H](NCc2ccc(F)cc2)[C@@H]1O)N1CCOCC1 as well. -8.58

Please do the same for CCN(CC)C(=O)CN(C)C(=O)c1cc(-c2cccc(Cl)c2)no1 as well. -15.3

Please do the same for CCCn1c(N2CCCCC2)nc2c(C)nn(C)c2c1=O as well. 15.3

Please do the same for O=C(c1ccc(-c2nc[nH]n2)cc1)N1CC[C@H](CO)[C@@H](O)C1 as well. -10.8

Please do the same for Cc1cnc2c(S(=O)(=O)NCC3CC3)cccc2c1 as well. -1.56

Please do the same for CCCc1n[nH]c(C2CN(C(=O)c3ccnc(C4CC4)n3)CCO2)n1 (stereo not drawn) as well. -1.45

Please do the same for Cc1cc(C)cc(C(=O)Nc2cn[nH]c2)c1 as well. -8.68

Please do the same for Cc1nccn1C1CCCN(C(=O)c2sccc2-n2cnnn2)C1 (stereo not drawn) as well. -8.22

Please do the same for CCCN1CCN(Cc2cc3cc(OCC)ccc3[nH]c2=O)CC1 as well. -6.17

Please do the same for O=C1CC(c2ccc(C(=O)O)cc2)c2ncn(-c3ccccc3F)c2N1 (stereo not drawn) as well. -11.1

Please do the same for COc1cccc(N2CCN(C(=O)CN(C)c3cnccn3)CC2)c1 as well. -1.38

====

experiment: Human HepG2 cell viability assay in 384 well format; assay type: toxicity, cell-based; design: dose 125 nL, time 70.5 hour; concentration not given beside the values; conditions: HepG2 cells, read-out: Inhibition
measured quantity: cytotoxicity at 70.5 h (%)
I only need the number, in %, no unit after it.

Cc1cc(NC(=O)NCC(CC(C)C)N2CCOCC2)n(C)n1 (stereo unspecified)
2.74
CC(C)(CO)N1CCN(S(=O)(=O)CCCF)CC1
-8.05

Record request: cytotoxicity at 70.5 h value, item Clc1ccccc1OCCc1cc(C2CCNC2)n[nH]1 (stereo unspecified) -4.47

Please do the same for CCN(CC)C(=O)CCc1nc(-c2cnn3c(C)cc(C)nc23)no1 as well. -121

Please do the same for Cc1cc(=O)n2c3c(cc(S(=O)(=O)NC4CC4)cc13)CCC2 as well. 31.9

Please do the same for CC(C)n1cnnc1CN1C(=O)CCc2ccccc21 as well. -1.8
